# experimentalConditions: 353.15 K; 2000 kPa; Liquid; Vibrating tube method
quantity: mass density (kg/m3)
Give the value, in units of kg/m3, as a plain number.

Input line: What value of mass density has been reported for the following molecule? "CCC[N+]1(C)CCCCC1.O=S(=O)([N-]S(=O)(=O)C(F)(F)F)C(F)(F)F"
Output line: 1360.2

====

# experimentalConditions: 323.15 K; 2000 kPa; Liquid; Vibrating tube method
quantity: mass density (kg/m3)
Hi! Could you send only the number? It should be in kg/m3, unit omitted.

Sample records with mass density:
Input line: What value of mass density has been recorded for this entry: "CCCC[N+]1(C)CCCC1.O=S(=O)([N-]S(=O)(=O)C(F)(F)F)C(F)(F)F"
Output line: 1381.2

Input line: Quick check: mass density of "CCC[n+]1cccc(C)c1.O=S(=O)([N-]S(=O)(=O)C(F)(F)F)C(F)(F)F" ?
Output line: 1425.3

Input line: Recorded mass density of "CCC[N+]1(C)CCCCC1.O=S(=O)([N-]S(=O)(=O)C(F)(F)F)C(F)(F)F" , please.
Output line: 1389.1

Input line: Returns the measured mass density for the input compound. Input: CCn1cc[n+](C)c1.O=S(=O)([O-])C(F)(F)F [1-ethyl-3-methylimidazolium trifluoromethanesulfonate]
Output line: 1353.2

As a next step, examine the compound that follows.
Input line: Entry "CCC[N+]1(C)CCCC1.O=S(=O)([N-]S(=O)(=O)C(F)(F)F)C(F)(F)F" has what mass density?
Output line: 1410.1
